Hey, just so you know, these numbers are from patent US20100204445A1.

Listed here are binders together with their documented pKd.
ASSAYED SYSTEM: recombinant cohesin (CipA of Clostridium josui, BAA32429) (Clostridium josui)
PROTOCOL NOTES: SPR (Biacore T-100), same format, 5 mM EGTA in running buffer
Conceptually, pKd converts a concentration in mol/L into minus its log10.

- BINDER: "recombinant JNK3 of which an I49S-substituted dockerin polypeptide is fused at the N-terminal (protein, not shown: large carriers; small tags and cut ends) MGLKGDVNNDGAIDALDIAALKKAILTQSTSNINLTNADMNNDGNIDASDFAQLKVKLLN"
  MEASUREMENT KIND: "pKd"
  NUMERIC RESULT: 7.17

# get_value(readout='pKd', item= recombinant JNK3 of which an I49N-substituted dockerin polypeptide was fused at the N-terminal (protein, not shown: large carriers; small tags and cut ends) MGLKGDVNNDGAIDALDIAALKKAILTQSTSNINLTNADMNNDGNIDANDFAQLKVKLLN ) 7.25

# get_value(readout='pKd', item= recombinant JNK3 of which an L16T/I49T-substituted dockerin polypeptide is fused at the N-terminal (protein, not shown: large carriers; small tags and cut ends) MGLKGDVNNDGAIDATDIAALKKAILTQSTSNINLTNADMNNDGNIDATDFAQLKVKLLN ) 7.92
